# tested.target: Recombinant human his-tagged IGF 1R extracellular domain protein (human) (UniProt P08069)
# experiment.notes: SPR, captured antibody, dissociation at pH 6
Each entry below carries its recorded koff.
Give the quantity in s⁻¹, number only.

| binder | readout | unit.string | assay.result |
| --- | --- | --- | --- |
| VRDN-03101 (antibody, V domains shown) VH: QVQLVESGGGVVQPGRSLRLSCAASGFTFSDYTMHWVRQAPGKGLEWVAIIWFDGSSKYYADSVKGRFTISRDNSKNTLYLQMNSLRAEDTAVYYCARELGRRYFDIWGRGTLVTVSS VL: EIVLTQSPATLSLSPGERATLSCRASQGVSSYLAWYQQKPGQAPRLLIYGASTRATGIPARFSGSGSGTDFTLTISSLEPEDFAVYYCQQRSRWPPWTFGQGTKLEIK | koff | s⁻¹ | 0.000268 |

Now for the binder whose koff we want.
# binder VRDN-03050 (antibody, V domains shown) VH: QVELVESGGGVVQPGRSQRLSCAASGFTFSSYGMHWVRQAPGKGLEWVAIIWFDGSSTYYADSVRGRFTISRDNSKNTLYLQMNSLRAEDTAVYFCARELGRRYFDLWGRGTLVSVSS VL: EIVLTQSPATLSLSPGERATLSCRASQSVSSYLAWYQQKPGQAPRLLIYDHSKRATGIPARFSGSGSGTDFTLTISSLEPEDFAVYYCQQRSKWPPWTFGQGTKVESK ; its koff = 0.00017
